# Tested on: HOP-62 NSCLC
# method.description: NCI tumour cell line growth inhibition, 48 h
recorded.endpoint: TGI

Exercise: I have this compound here, O=C1NC(=O)N(S(=O)(=O)c2cc(C(=O)Nc3ccc(Cl)cc3)c(Cl)cc2S)S(=O)(=O)N1 , and I need its recorded TGI.
Solution: 37.4 µM

Exercise: What value of TGI has been reported for the following compound? CN1S(=O)(=O)N(C)P12(N=P(CP(=NP13(N(C)S(=O)(=O)N1C)N(C)S(=O)(=O)N3C)(c1ccccc1)c1ccccc1)(c1ccccc1)c1ccccc1)N(C)S(=O)(=O)N2C
Solution: > 100 µM

Exercise: Name the reported TGI value associated with the compound S=c1[nH]nc(Cn2c3ccc(Br)cc3c3nc4ccccc4nc32)o1
Solution: 99.2 µM

Exercise: Record request: TGI value, item CC(=O)O[C@H]1C[C@@H]2[C@@]3(C)CC[C@H]4C[C@@]4(C)[C@@H]3CC[C@@]2(C)C2=CCC3=C(COC3=O)[C@]21C
Solution: 36.4 µM

Exercise: Tell me the measured TGI of Nc1cc(C(F)(F)F)c(-c2nc(N3CCOCC3)nc(N3CCOCC3)n2)cn1 , please.
Solution: 16.2 µM

Exercise: Give its TGI value. Item: CCOc1ccc(OP2(=O)NC(=O)C=C(C)N2)cc1 (centres undefined)
Solution: > 100 µM

Exercise: Give the measured TGI of C/C=C1/C=CC2c3[nH]c4ccccc4c3CCN2C1 (centres undefined) .
Solution: > 400 µM

Exercise: Need TGI, item COc1ccccc1CNCCCN1C(=O)c2ccc3c4c(ccc(c24)C1=O)C(=O)N(CCCNCc1ccccc1OC)C3=O
Solution: 0.633 µM

Exercise: Item under review: CCOc1ccc(NC(=O)C(=O)C(/C(=N/N)C(=O)OC)c2nc3ccc([N+](=O)[O-])cc3[nH]c2=O)cc1 (centres undefined) . Reported TGI?
Solution: > 100 µM

Exercise: What TGI value was documented for this compound, CN(Cc1cccc2ccsc12)/N=C\c1ccc(Cl)cc1 ?
Solution: > 100 µM

Exercise: Looking for the measured TGI of C=C1CC[C@@H]2[C@](C)(COC(=O)CCC(=O)OC)CCC[C@@]2(C)[C@@H]1CCC1=CC(=O)OC1 , can you help?
Solution: > 100 µM

Exercise: Given COC(=O)N/N=c1\cc(C(=O)Nc2ccc(C)c(C)c2)oc2cc(O)ccc12 , state its recorded TGI.
Solution: > 100 µM

Exercise: Form field: reported TGI of C(=NC12CC3CC(CC(C3)C1)C2)C1CCCCC1
Solution: > 100 µM

Exercise: TGI for O=C(O)c1cn(C2CC2)c2cc(N3CCN(C(=O)N(c4ccccc4)c4nc(-c5ccccc5)cs4)CC3)c(F)cc2c1=O ?
Solution: > 45.4 µM

Exercise: Look at this compound and give its reported TGI. COc1cc2c(cc1C)NC(=O)/C2=C\c1ccc(Oc2ccccc2)cc1
Solution: 31 µM

Exercise: Using the record for CC(C)(CCCCC(C)(C)NC1=NCCO1)NC1=NCCO1 , report its TGI.
Solution: > 10 µM

Exercise: What TGI value was documented for this compound, O=C(/C=C/c1ccccc1)CCN1CCCCC1 ?
Solution: > 100 µM

Exercise: Looking for the measured TGI of Cc1cccc(Oc2ccc(Nc3ncnc4ccc(NC(=O)CN(C)C)cc34)cc2Cl)c1 , can you help?
Solution: 4.16 µM

Exercise: Look up TGI: COc1cc(CCN)c(OC)c(OC)c1
Solution: > 100 µM
